target: His6-tagged ClpC1-NTD substrate, M. smegmatis ClpC1P1P2 (UniProt A0R574+P9WPC9); assay: biochemical; format: biochemical; details: Msm; mean of the measurements; read-out: DC50, Mean
Sequence (P9WPC9 1-156, looked up, natural form): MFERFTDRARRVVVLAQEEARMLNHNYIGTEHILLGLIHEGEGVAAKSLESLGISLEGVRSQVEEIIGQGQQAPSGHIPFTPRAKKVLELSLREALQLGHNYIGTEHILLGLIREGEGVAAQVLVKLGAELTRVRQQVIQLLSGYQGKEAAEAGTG
Sequence (A0R574 whole entry): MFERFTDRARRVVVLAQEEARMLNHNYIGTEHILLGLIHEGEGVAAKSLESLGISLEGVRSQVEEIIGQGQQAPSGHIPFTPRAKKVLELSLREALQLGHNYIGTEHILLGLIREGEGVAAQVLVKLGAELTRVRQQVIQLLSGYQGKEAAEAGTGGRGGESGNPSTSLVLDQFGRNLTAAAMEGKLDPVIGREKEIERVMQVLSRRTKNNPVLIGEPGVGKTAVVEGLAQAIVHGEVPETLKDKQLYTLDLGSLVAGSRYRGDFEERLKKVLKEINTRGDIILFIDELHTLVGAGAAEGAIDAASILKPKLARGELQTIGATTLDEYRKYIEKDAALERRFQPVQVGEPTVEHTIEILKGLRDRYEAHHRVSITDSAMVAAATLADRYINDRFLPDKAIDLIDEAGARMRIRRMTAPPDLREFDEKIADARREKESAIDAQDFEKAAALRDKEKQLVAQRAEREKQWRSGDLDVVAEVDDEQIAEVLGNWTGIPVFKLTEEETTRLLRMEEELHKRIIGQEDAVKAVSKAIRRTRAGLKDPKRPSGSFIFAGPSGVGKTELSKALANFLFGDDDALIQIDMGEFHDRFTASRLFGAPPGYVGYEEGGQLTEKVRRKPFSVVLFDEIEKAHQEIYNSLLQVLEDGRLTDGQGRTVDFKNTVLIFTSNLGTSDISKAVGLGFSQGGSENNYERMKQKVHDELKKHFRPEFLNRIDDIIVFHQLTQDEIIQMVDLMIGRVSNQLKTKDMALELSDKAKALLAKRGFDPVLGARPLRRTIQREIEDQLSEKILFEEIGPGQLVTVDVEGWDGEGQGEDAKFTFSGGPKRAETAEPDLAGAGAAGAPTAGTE
DC50 values, listed per item
In your response, put the unit directly after the numeric value.

// worked examples, DC50 included
>  <molecule>
CO[C@H](c1ccccc1)[C@@H]1NC(=O)[C@H](C)NC(=O)[C@H](C[C@@H](C)CO)N(C)C(=O)[C@H](Cc2cn(C)c3ccccc23)N(C)C(=O)[C@H](Cc2cn(CCOCCOCCn3cc(C[C@@H]4NC(=O)[C@H](CC(C)C)N(C)C(=O)[C@H](C(C)C)NC(=O)[C@H]([C@H](OC)c5ccccc5)NC(=O)[C@H](C)NC(=O)[C@H](C[C@@H](C)CO)N(C)C(=O)[C@H](Cc5cn(C)c6ccccc56)N(C)C4=O)nn3)nn2)NC(=O)[C@H](CC(C)C)N(C)C(=O)[C@H](C(C)C)NC1=O

>  <value-reported>
5.5 µM

$$$$
>  <molecule>
CO[C@H](c1ccccc1)[C@@H]1NC(=O)[C@H](C)NC(=O)[C@H](C[C@@H](C)CO)N(C)C(=O)[C@H](Cc2cn(Cc3cn(CCOCCOCCOCCOCCn4cc(Cn5cc(C[C@H]6C(=O)N(C)[C@@H](C[C@@H](C)CO)C(=O)N[C@@H](C)C(=O)N[C@@H]([C@H](OC)c7ccccc7)C(=O)N[C@@H](C(C)C)C(=O)N(C)[C@@H](CC(C)C)C(=O)N[C@@H](C(C)C)C(=O)N6C)c6ccccc65)nn4)nn3)c3ccccc23)N(C)C(=O)[C@H](C(C)C)NC(=O)[C@H](CC(C)C)N(C)C(=O)[C@H](C(C)C)NC1=O

>  <value-reported>
12.5 µM

$$$$

Let's switch to this molecule now.
# DC50 of COC(c1ccccc1)C1NC(=O)C(C)NC(=O)C(CC(C)CO)N(C)C(=O)C(Cc2cn(CCCCn3cc(CC4NC(=O)C(C(C)C)NC(=O)C(CC(C)C)N(C)C(=O)C(C(C)C)NC(=O)C(C(OC)c5ccccc5)NC(=O)C(C)NC(=O)C(CC(C)CO)N(C)C4=O)c4ccccc43)c3ccccc23)NC(=O)C(C(C)C)NC(=O)C(CC(C)C)N(C)C(=O)C(C(C)C)NC1=O (stereo not drawn) = 7 µM

---

Each entry below carries its reported MIC.
Test system: Enterococcus faecium
Assay: MIC ESKAPES panel, Enterococcus faecium
Assay type: cell-based
Conditions: Enterococcus faecium; Gram-Positive Bacteria; replicates 1-3
Procedure: Minimum inhibitory concentration (MIC) against ESKAPES panel of Gram positive and Gram negative pathogens (Enterococcus faecium, Staphylococcus aureus, Klebsiella pneumoniae, Acinetobacter baumannii, Pseudomonas aeruginosa, Enterobacter cloacae and Salmonella typhimurium [ESKAPES panel]) were determined at the FNDR by the standard broth dilution method [CLSI, M100]. […] The assay plates were incubated at 37 °C, and the results were noted on the 2nd day as turbidometric readout. […]
*1 amine or outer side, *2 acyl side, *3 side chain or, on linkers, in order; H or OH if unused. Where a SMILES comes first, the peptide text is derived from it. [ ]: non-standard residue; d: D form. X1 = C#CCn1cc(C[C@H](N[*:1])C(=O)[*:2])c2ccccc21; NMeLeu(5-OH,4R) = CN[C@@H](C[C@@H](C)CO)C(=O)O; Phe(βR-OMe) = CO[C@H](c1ccccc1)[C@H](N)C(=O)O; Trp(1-Me) = Cn1cc(C[C@H](N)C(=O)O)c2ccccc21; NMeL = CN[C@@H](CC(C)C)C(=O)O; Pra = C#CC[C@H](N)C(=O)O

>  <compound>
C#CC[C@@H]1NC(=O)[C@H](CC(C)C)N(C)C(=O)[C@H](C(C)C)NC(=O)[C@H]([C@H](OC)c2ccccc2)NC(=O)[C@H](C)NC(=O)[C@H](C[C@@H](C)CO)N(C)C(=O)[C@H](Cc2cn(C)c3ccccc23)NC1=O [Compound 10] (cyclo(A[Phe(βR-OMe)]V[NMeL][Pra][Trp(1-Me)][NMeLeu(5-OH,4R)]))

>  <MIC>
> 45.6 µg/mL

$$$$
>  <compound>
COC(c1ccccc1)C1NC(=O)C(C)NC(=O)C(CC(C)CO)N(C)C(=O)C(Cc2cn(C)c3ccccc23)NC(=O)C(Cc2cn(CCCCCn3cc(CC4NC(=O)C(CC(C)C)N(C)C(=O)C(C(C)C)NC(=O)C(C(OC)c5ccccc5)NC(=O)C(C)NC(=O)C(CC(C)CO)N(C)C(=O)C(Cc5cn(C)c6ccccc56)NC4=O)nn3)nn2)NC(=O)C(CC(C)C)N(C)C(=O)C(C(C)C)NC1=O (stereo not shown) [Compound 12]

>  <MIC>
> 99 µg/mL

$$$$
>  <compound>
COC(c1ccccc1)C1NC(=O)C(C)NC(=O)C(CC(C)CO)N(C)C(=O)C(Cc2cn(Cc3cn(CCOCCOCCOCCOCCn4cc(Cn5cc(CC6NC(=O)C(C(C)C)NC(=O)C(CC(C)C)N(C)C(=O)C(C(C)C)NC(=O)C(C(OC)c7ccccc7)NC(=O)C(C)NC(=O)C(CC(C)CO)N(C)C6=O)c6ccccc65)nn4)nn3)c3ccccc23)NC(=O)C(C(C)C)NC(=O)C(CC(C)C)N(C)C(=O)C(C(C)C)NC1=O (stereo not shown) [Compound 8]

>  <MIC>
> 109 µg/mL

$$$$

Turning now to a further record.
# value of MIC, Enterococcus faecium, item C#CCn1cc(C[C@@H]2NC(=O)[C@H](C(C)C)NC(=O)[C@H](CC(C)C)N(C)C(=O)[C@H](C(C)C)NC(=O)[C@H]([C@H](OC)c3ccccc3)NC(=O)[C@H](C)NC(=O)[C@H](C[C@@H](C)CO)N(C)C2=O)c2ccccc21 [Compound 5] (cyclo(A[Phe(βR-OMe)]V[NMeL]V[X1][NMeLeu(5-OH,4R)])) = > 47 µg/mL

---

assay: in vitro; conditions: human, Caco-2, Caco-2 permeability P (A-B), apical to basolateral
Below, each entry is listed with its recorded Papp A→B.

Would you please look over these solved cases?
>  <compound>
CCCCCn1cc(C[C@@H]2NC(=O)[C@H](CC(C)C)N(C)C(=O)[C@H](C(C)C)NC(=O)[C@H]([C@H](OC)c3ccccc3)NC(=O)[C@H](C)NC(=O)[C@H](C[C@@H](C)CO)N(C)C(=O)[C@H](Cc3cn(C)c4ccccc34)NC2=O)nn1 [Compound 24]

>  <value-reported>
< 0.3 ×10⁻⁶ cm/s

$$$$
>  <compound>
CO[C@H](c1ccc(OCc2cn(CCCCCn3cc(COc4ccc([C@@H](OC)[C@@H]5NC(=O)[C@H](C)NC(=O)[C@H](C[C@@H](C)CO)N(C)C(=O)[C@H](Cc6cn(C)c7ccccc67)N(C)C(=O)[C@H](C(C)C)NC(=O)[C@H](CC(C)C)N(C)C(=O)[C@H](C(C)C)NC5=O)cc4)nn3)nn2)cc1)[C@@H]1NC(=O)[C@H](C)NC(=O)[C@H](C[C@@H](C)CO)N(C)C(=O)[C@H](Cc2cn(C)c3ccccc23)N(C)C(=O)[C@H](C(C)C)NC(=O)[C@H](CC(C)C)N(C)C(=O)[C@H](C(C)C)NC1=O [SI-66]

>  <value-reported>
< 4.8 ×10⁻⁶ cm/s

$$$$

For the next question, use this compound.
For CO[C@H](c1ccccc1)[C@@H]1NC(=O)[C@H](C)NC(=O)[C@H](C[C@@H](C)CO)N(C)C(=O)[C@H](Cc2cn(Cc3cn(CCOCCn4cc(Cn5cc(C[C@@H]6NC(=O)[C@H](C(C)C)NC(=O)[C@H](CC(C)C)N(C)C(=O)[C@H](C(C)C)NC(=O)[C@H]([C@H](OC)c7ccccc7)NC(=O)[C@H](C)NC(=O)[C@H](C[C@@H](C)CO)N(C)C6=O)c6ccccc65)nn4)nn3)c3ccccc23)NC(=O)[C@H](C(C)C)NC(=O)[C@H](CC(C)C)N(C)C(=O)[C@H](C(C)C)NC1=O [Compound 6] the compound record lists Papp A→B as < 1.7 ×10⁻⁶ cm/s

---

test: Hepatocyte stability, mice; type: in vitro ADME; conditions: mouse, pH 7.4
*1 amine or outer side, *2 acyl side, *3 side chain or, on linkers, in order; H or OH if unused. Where a SMILES comes first, the peptide text is derived from it. [ ]: non-standard residue; d: D form. X1 = C#CCn1cc(C[C@H](N[*:1])C(=O)[*:2])c2ccccc21; NMeLeu(5-OH,4R) = CN[C@@H](C[C@@H](C)CO)C(=O)O; Phe(βR-OMe) = CO[C@H](c1ccccc1)[C@H](N)C(=O)O; NMeL = CN[C@@H](CC(C)C)C(=O)O
reported-endpoint: Hepatocyte Mice (%Qh)
Express your answer in %Qh, writing the number without its unit.

Reference set (2 entries):
>  <molecule>
COC(c1ccccc1)C1NC(=O)C(C)NC(=O)C(CC(C)CO)N(C)C(=O)C(Cc2cn(CC=CCn3cc(CC4NC(=O)C(C(C)C)NC(=O)C(CC(C)C)N(C)C(=O)C(C(C)C)NC(=O)C(C(OC)c5ccccc5)NC(=O)C(C)NC(=O)C(CC(C)CO)N(C)C4=O)c4ccccc43)c3ccccc23)NC(=O)C(C(C)C)NC(=O)C(CC(C)C)N(C)C(=O)C(C(C)C)NC1=O (stereo not drawn)

>  <reported-endpoint>
Hepatocyte Mice

>  <units-symbol>
%Qh

>  <value-reported>
15

$$$$
>  <molecule>
CO[C@H](c1ccccc1)[C@@H]1NC(=O)[C@H](C)NC(=O)[C@H](C[C@@H](C)CO)N(C)C(=O)[C@H](Cc2cn(C)c3ccccc23)NC(=O)[C@H](Cc2cn(CCOCCOCCn3cc(C[C@@H]4NC(=O)[C@H](CC(C)C)N(C)C(=O)[C@H](C(C)C)NC(=O)[C@H]([C@H](OC)c5ccccc5)NC(=O)[C@H](C)NC(=O)[C@H](C[C@@H](C)CO)N(C)C(=O)[C@H](Cc5cn(C)c6ccccc56)NC4=O)nn3)nn2)NC(=O)[C@H](CC(C)C)N(C)C(=O)[C@H](C(C)C)NC1=O

>  <reported-endpoint>
Hepatocyte Mice

>  <units-symbol>
%Qh

>  <value-reported>
15

$$$$

Here is the next item to consider.
C#CCn1cc(C[C@@H]2NC(=O)[C@H](C(C)C)NC(=O)[C@H](CC(C)C)N(C)C(=O)[C@H](C(C)C)NC(=O)[C@H]([C@H](OC)c3ccccc3)NC(=O)[C@H](C)NC(=O)[C@H](C[C@@H](C)CO)N(C)C2=O)c2ccccc21 [Compound 5] (cyclo(A[Phe(βR-OMe)]V[NMeL]V[X1][NMeLeu(5-OH,4R)])) yielded Hepatocyte Mice of 58
